B1: NCF4 (parent)
chain: FVKILKDFPEEDDPTNWLRCYYYE

variants of: B1; test: protein stability index of a GFP-peptide fusion (GPS, HEK-293T) (PSI 1-6); higher = more stable; settings: c terminus: a fixed tail appended;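 also: lentivirally expressed fusions sorted by FACS into six bins by GFP to DsRed ratio, PSI derived from sequencing read proportions per bin multiplied by bin number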
// reported protein stability index for each item listed

| mutation-name | protein stability index |
| --- | --- |
| T15W | 1.41 |
| Y22I | 1.75 |
| D13V | 1.53 |
| C20E | 2.12 |
| Y22F | 1.65 |
| Y23G | 1.96 |
| D12M | 2.39 |
| K3Y | 1.01 |
| W17K | 1.93 |
| I4N | 2.76 |
| E11K | 1.39 |
